Source listed as patent US10689378B2.

# subject_of_test: EED (1-441)-His protein (Homo sapiens)
# Construct: 30 nM EED (1-441)-His protein
# test: EED-H3K27Me3 peptide competition binding assay by AlphaScreen
# assay_context: read-out: (a) IC50, EED Alphascreen binding Qualified
endpoint_label: IC50 (nM)

The examples below pair each entry with its known result.
>>> reading("COc1cccc(F)c1CNc1ccc(-n2cc(C)nc2C)c2nncn12")
18.7
>>> reading("COc1cccc(F)c1CNc1ccc(-c2ccc(O)nc2)c2nncn12")
66.4
>>> reading("COc1cccc(F)c1CNc1ccc(-c2c(C)nn(C)c2C)c2nncn12")
52.1
>>> reading("COc1ccccc1CNc1ccc(-c2ccc(S(C)(=O)=O)cc2)c2nncn12")
33.6

1. COc1ccccc1CNc1ccc(-c2ccc(CN3CCCC3)cc2)c2nncn12
2. COc1ccccc1CNc1ccc(-c2ccccc2F)c2nncn12
3. COc1ccccc1CNc1ccc(-c2ccc(S(=O)(=O)C3CCNCC3)cc2)c2nncn12
4. CCN1CCN(c2ccc(-c3ccc(NCc4ccccc4OC)n4cnnc34)cc2)CC1
5. COc1ccccc1CNc1ccc(-c2ccc(CN3CCN(C)CC3)cc2)c2nncn12
Arrange the 5 compounds by rising IC50, starting with the smallest. Please list the labels in the order you were asked to rank them.
5, 3, 1, 4, 2
(5: 15.5 nM, 3: 27.9 nM, 1: 40.2 nM, 4: 65.9 nM, 2: 98.5 nM)

----------
# subject_of_test: wild type PRC2 (wtPRC2) complex (Homo sapiens, UniProt O75530)
# Sequence (O75530 whole entry): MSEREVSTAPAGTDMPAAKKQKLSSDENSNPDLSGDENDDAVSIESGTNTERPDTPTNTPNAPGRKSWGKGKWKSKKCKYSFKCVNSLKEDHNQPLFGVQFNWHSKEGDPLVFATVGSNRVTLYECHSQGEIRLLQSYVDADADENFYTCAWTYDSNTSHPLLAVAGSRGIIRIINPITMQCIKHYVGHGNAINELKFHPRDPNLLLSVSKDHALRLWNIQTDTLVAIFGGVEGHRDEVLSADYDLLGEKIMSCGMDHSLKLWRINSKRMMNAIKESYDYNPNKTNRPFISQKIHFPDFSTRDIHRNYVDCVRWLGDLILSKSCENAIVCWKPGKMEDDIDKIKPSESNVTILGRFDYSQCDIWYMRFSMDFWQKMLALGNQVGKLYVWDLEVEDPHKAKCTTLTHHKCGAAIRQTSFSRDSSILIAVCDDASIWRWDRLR
# Sequence (Q15910 whole entry partner): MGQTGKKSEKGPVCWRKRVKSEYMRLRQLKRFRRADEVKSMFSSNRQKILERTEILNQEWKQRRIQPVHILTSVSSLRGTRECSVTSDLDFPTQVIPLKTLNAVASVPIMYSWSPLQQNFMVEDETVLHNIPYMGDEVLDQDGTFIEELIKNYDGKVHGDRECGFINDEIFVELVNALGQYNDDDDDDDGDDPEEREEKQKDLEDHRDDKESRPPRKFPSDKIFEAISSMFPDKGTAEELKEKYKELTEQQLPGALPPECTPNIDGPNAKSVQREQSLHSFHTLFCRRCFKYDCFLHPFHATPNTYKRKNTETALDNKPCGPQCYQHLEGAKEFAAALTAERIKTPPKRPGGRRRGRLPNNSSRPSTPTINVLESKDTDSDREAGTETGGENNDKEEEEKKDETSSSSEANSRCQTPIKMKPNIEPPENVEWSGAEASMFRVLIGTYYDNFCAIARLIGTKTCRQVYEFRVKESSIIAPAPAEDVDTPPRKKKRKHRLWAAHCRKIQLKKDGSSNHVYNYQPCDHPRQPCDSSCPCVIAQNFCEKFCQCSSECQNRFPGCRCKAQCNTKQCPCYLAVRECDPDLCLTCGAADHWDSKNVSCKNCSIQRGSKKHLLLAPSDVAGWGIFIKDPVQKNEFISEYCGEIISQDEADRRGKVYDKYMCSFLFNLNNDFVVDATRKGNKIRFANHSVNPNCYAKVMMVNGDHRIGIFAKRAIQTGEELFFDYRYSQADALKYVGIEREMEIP
# Sequence (Q15022 whole entry partner): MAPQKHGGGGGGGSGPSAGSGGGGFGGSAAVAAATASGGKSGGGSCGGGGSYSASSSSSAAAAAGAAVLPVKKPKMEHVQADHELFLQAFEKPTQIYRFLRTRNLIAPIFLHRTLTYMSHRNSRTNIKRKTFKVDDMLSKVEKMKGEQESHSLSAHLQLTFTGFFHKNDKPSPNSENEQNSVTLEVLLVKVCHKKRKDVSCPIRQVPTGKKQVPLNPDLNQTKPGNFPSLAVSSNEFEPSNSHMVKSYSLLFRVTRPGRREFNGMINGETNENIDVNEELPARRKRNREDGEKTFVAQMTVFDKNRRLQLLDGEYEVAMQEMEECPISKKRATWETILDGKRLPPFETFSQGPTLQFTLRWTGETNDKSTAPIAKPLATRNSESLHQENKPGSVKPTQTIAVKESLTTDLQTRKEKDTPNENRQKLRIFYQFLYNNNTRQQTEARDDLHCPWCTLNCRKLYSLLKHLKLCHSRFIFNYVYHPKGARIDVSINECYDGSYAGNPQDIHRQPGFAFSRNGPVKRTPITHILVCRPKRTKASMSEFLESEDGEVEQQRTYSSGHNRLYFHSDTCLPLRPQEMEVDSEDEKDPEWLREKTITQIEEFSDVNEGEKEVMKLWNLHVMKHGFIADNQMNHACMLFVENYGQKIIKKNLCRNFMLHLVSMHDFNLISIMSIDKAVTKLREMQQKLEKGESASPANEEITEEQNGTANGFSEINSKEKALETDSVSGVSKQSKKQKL
# Sequence (Q09028 whole entry partner): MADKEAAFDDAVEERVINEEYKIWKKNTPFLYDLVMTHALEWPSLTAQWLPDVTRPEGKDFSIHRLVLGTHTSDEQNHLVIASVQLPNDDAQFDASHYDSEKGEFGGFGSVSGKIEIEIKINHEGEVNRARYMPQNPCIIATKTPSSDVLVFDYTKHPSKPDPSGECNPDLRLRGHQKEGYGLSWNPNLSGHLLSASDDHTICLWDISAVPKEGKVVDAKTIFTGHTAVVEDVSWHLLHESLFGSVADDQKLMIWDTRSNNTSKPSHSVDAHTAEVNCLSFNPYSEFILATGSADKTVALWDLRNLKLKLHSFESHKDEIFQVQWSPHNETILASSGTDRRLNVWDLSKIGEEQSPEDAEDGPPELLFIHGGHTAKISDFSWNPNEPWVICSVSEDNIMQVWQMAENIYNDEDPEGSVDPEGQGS
# Sequence (Q6ZN18 whole entry partner): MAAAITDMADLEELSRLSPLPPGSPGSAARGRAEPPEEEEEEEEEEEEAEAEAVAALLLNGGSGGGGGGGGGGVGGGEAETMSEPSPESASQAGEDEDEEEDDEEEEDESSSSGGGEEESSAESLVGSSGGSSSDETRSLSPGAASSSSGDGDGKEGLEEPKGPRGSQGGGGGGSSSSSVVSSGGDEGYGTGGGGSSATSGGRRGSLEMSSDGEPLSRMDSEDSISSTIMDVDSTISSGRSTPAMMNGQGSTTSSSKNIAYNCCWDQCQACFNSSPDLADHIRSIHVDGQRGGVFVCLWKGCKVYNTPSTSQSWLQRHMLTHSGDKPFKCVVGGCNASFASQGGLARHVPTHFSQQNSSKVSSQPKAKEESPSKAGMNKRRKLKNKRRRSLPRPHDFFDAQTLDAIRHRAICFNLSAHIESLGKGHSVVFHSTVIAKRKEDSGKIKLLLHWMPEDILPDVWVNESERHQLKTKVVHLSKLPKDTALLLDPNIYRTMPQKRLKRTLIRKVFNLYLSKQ
# test: EED LC-MS assay (SAH production by PRC2)
# Type: biochemical
# assay_context: PRC2 LC-MS assay; read-out: (b) IC50 EED LC-MS Qualified
endpoint_label: IC50 (nM)

>>> reading("COc1cc(F)cc(F)c1CNc1ccc(-c2ccncc2C)c2nncn12")
618

a. COc1cccc(F)c1CNc1ccc(-c2cn(CCO)nc2C(F)(F)F)c2nncn12
b. COc1cccc(F)c1CNc1ccc(-c2cncc(C(C)(C)O)c2)c2nncn12
// which entry has the larger IC50 value, a or b ? Answer format: the label of the selected item.
b

1. COc1cc(F)cc(F)c1CNc1ccc(-c2ccc(C#N)nc2C)c2nncn12
2. COc1cccc(F)c1CNc1ccc(-c2cnc(S(C)(=O)=O)cc2C(F)F)c2nncn12
// which entry has the larger IC50 value, 1 or 2 ? Answer format: the label of the selected item.
2
(2: 93.4 nM, 1: 63.8 nM)

----------
# System: H3K27 methylation in G401 cell
# test: ELISA (H3K27 methylation) assay in G401 cells
# Format: cell-based, human
# assay_context: Homo sapiens, G-401, H3K27 methylation ELISA, read-out: (c) IC50 ELISA Qualified
pIC50: −log10 of the molar value.
endpoint_label: pIC50

>>> reading("COc1cccc(F)c1CNc1ccc(-c2cc(F)ncc2C)c2nncn12")
7.92
>>> reading("COc1cccc(F)c1CNc1ccc(-c2ccc(N3CCOCC3)nc2)c2nncn12")
6.95
>>> reading("COc1ccccc1-c1ccc(NCc2c(F)cccc2OC)n2cnnc12")
6.00

P. COc1cccc(F)c1CNc1ccc(-c2cn(CCO)nc2C(F)(F)F)c2nncn12
Q. COc1cccc(F)c1CNc1ccc(-c2ccc(S(C)(=O)=O)nc2C)c2nncn12
Which has the smaller recorded pIC50, P or Q ? Answer format: the label of the selected item.
P

a. CO/N=C(\C)c1ccc(-c2ccc(NCc3c(F)cccc3OC)n3cnnc23)cn1
b. COc1cccc(F)c1CNc1ccc(-c2ccc(C(=O)N(C)C)nc2C)c2nncn12
c. COc1cccc(F)c1CNc1ccc(-c2cnn(C)c2CO)c2nncn12
Arrange the 3 compounds by rising pIC50, starting with the smallest. Please list the labels in the order you were asked to rank them.
a, c, b

----------
# subject_of_test: wild type PRC2 (wtPRC2) complex (Homo sapiens, UniProt O75530)
# test: EED LC-MS assay (SAH production by PRC2)
# Assay type: biochemical
# assay_context: read-out: (b) IC50, EED LC-MS Qualified
endpoint_label: IC50 (nM)

The examples below pair each entry with its known result.
>>> reading("COc1ncc(-c2ccc(NCc3ccccc3OC)n3cnnc23)cn1")
735
>>> reading("COc1cccc(F)c1CNc1ccc(-c2cnccc2C)c2nncn12")
94.8

I. COc1ccccc1CNc1ccc(-c2ccc(N3CCN(C)CC3)cc2)c2nncn12
II. CCc1nc(-c2ccc(NCc3c(F)cccc3OC)n3cnnc23)no1
III. COc1cccc(F)c1CNc1ccc(-c2ccc(O)nc2)c2nncn12
IV. COc1cccc(F)c1CNc1ccc(-c2cnc(C)nc2)c2nncn12
Arrange the 4 compounds by rising IC50, starting with the smallest. Please list the labels in the order you were asked to rank them.
IV, II, I, III

1. COc1cccc(F)c1CNc1ccc(-c2ncccc2C)c2nncn12
2. COc1ccccc1CNc1ccc(-c2ccc(CCN(C)C)cc2)c2nncn12
3. COc1ccccc1CNc1ccc(-c2ccc(S(=O)(=O)C3CCN(C)CC3)cc2)c2nncn12
Sort the 3 compounds by IC50; largest first, smallest last. Please list the labels in the order you were asked to rank them.
2, 3, 1
(2: 368 nM, 3: 224 nM, 1: 149 nM)

----------
# subject_of_test: wild type PRC2 (wtPRC2) complex (Homo sapiens)
# test: EED LC-MS assay (SAH production by PRC2)
# Assay type: biochemical
# assay_context: read-out: (b) IC50, EED LC-MS Qualified
pIC50: −log10 of the molar value.
endpoint_label: pIC50

>>> reading("COc1cccc(F)c1CNc1ccc(-c2cncc(N3CCCC3=O)c2)c2nncn12")
6.17
>>> reading("COc1cccc(F)c1CNc1ccc(-c2ccc(S(=O)(=O)C3CCN(C)CC3)cc2)c2nncn12")
7.18
>>> reading("COc1ccccc1CNc1ccc(-c2ccc(S(C)(=O)=O)nc2)c2nncn12")
6.27
>>> reading("COc1ccccc1CNc1ccc(-c2ccc(S(=O)(=O)N3CCCC3)cc2)c2nncn12")
6.51
>>> reading("COc1ccccc1CNc1ccc(-c2ccc(N3CC(C)N(C)CC3C)nc2)c2nncn12 (centres unmarked)")
6.77

a. COc1cccc(F)c1CNc1ccc(-c2nc(C)no2)c2nncn12
b. COc1ccccc1CNc1ccc(-c2ccc(N3CCN(C)CC3)nc2)c2nncn12
// which entry has the larger pIC50 value, a or b ? Answer format: the label of the selected item.
a
(a: 6.92, b: 5.97)

----------
# subject_of_test: EED (1-441)-His protein (Homo sapiens, UniProt O75530)
# Construct: 30 nM EED (1-441)-His protein
# Sequence (O75530 whole entry): as the sequence (O75530 whole entry) above
# test: EED-H3K27Me3 peptide competition binding assay by AlphaScreen
# assay_context: read-out: (a) IC50, EED Alphascreen binding Qualified
pIC50: −log10 of the molar value.
endpoint_label: pIC50

>>> reading("COc1ccccc1CNc1ccc(-c2cnc(N3CCN(C)CC3)c(Cl)c2)c2nncn12")
6.88
>>> reading("COc1cccc(F)c1CNc1ccc(-c2cncc(F)c2)c2nncn12")
7.86
>>> reading("COc1ccccc1CNc1ccc(-c2ccncc2)c2nncn12")
7.33

I. COc1cccc(F)c1CNc1ccc(-c2ccc(OCCO)cc2)c2nncn12
II. COc1ccccc1CNc1ccc(-c2ccc(C(=O)N(C)C)cc2)c2nncn12
III. COc1ccccc1CNc1ccc(-c2c(C)nn(C)c2C)c2nncn12
IV. COc1c(F)cccc1CNc1ccc(-c2ccc(S(=O)(=O)C3CCN(C)CC3)cc2)c2nncn12
V. COc1ccc(F)cc1CNc1ccc(-c2ccc(S(C)(=O)=O)cc2)c2nncn12
Arrange the 5 molecules by rising pIC50, starting with the smallest. Please list the labels in the order you were asked to rank them.
IV, V, III, I, II

----------
# subject_of_test: EED (1-441)-His protein (Homo sapiens)
# Construct: 30 nM EED (1-441)-His protein
# test: EED-H3K27Me3 peptide competition binding assay by AlphaScreen
# assay_context: read-out: (a) IC50 EED Alphascreen binding Qualified
endpoint_label: IC50 (nM)

I. COc1cccc(F)c1CNc1ccc(-c2cnc(C)nc2OC)c2nncn12
II. COc1cccc(F)c1CNc1ccc(-c2cc(C#N)cnc2C)c2nncn12
// which entry has the larger IC50 value, I or II ? Answer format: the label of the selected item.
II

----------
# Test system: H3K27 methylation in G401 cell
# test: ELISA (H3K27 methylation) assay in G401 cells
# Format: cell-based, human
# assay_context: Homo sapiens, G-401, read-out: (c) IC50, ELISA Qualified
endpoint_label: IC50 (nM)

The examples below pair each entry with its known result.
>>> reading("CN(C)Cc1ccc(-c2ccc(NCc3ccccc3OC(F)F)n3cnnc23)cc1")
363
>>> reading("COc1cccc(F)c1CNc1ccc(-c2cnn(C)c2)c2nncn12")
173
>>> reading("COc1c(F)cccc1CNc1ccc(-c2ccc(S(=O)(=O)C3CCN(C)CC3)cc2)c2nncn12")
2900
>>> reading("COc1cccc(F)c1CNc1ccc(-n2cc(C)nc2C)c2nncn12")
10.1
>>> reading("COc1c(F)cc(F)cc1CNc1ccc(-c2ccc(CN(C)C)cc2)c2nncn12")
4110
>>> reading("COc1ccc(F)cc1CNc1ccc(-c2ccncc2)c2nncn12")
895
>>> reading("COc1ccccc1CNc1ccc(-c2ccc(C(C)N3CCCC3)cc2)c2nncn12 (stereo not drawn)")
38
>>> reading("COc1cc(-c2ccc(NCc3ccccc3OC)n3cnnc23)ccn1")
168
>>> reading("COc1ccccc1CNc1ccc(-c2ccc(S(=O)(=O)N3CCN(C)CC3)cc2)c2nncn12")
114
>>> reading("COc1ccccc1CNc1ccc(-c2cnc(OC)c(F)c2)c2nncn12")
374

1. COc1cccc(F)c1CNc1ccc(-c2ccc(S(C)(=O)=O)nc2)c2nncn12
2. COc1ccc(F)c(CNc2ccc(-c3ccc(S(C)(=O)=O)cc3)c3nncn23)c1
Which has the smaller recorded IC50, 1 or 2 ? Answer format: the label of the selected item.
1
